Tested on: MS2 coat protein
Assay: apparent KD of MS2 coat protein, switch OFF state (with FMN for OFF switches, without FMN for ON switches); designed switch direction (-1 OFF switch, 1 ON switch): -1; higher = weaker reporter binding
Conditions: FMN input: 0 or 200 uM; Eterna round: R93 (includes R88 designs)
// reported apparent KD of MS2 coat protein for each item listed
# value in nM; strip the unit string

AAAAAGUCAGGAUAUCGGAAAAUAAAAAUAAAAAUAAAAAACGAGAAGGGACAUGAGGAUCACCCAUGUAUGAC [Mat - Exclusion 4 - Mayanna - D114] | 24.6

For the sequence shown here, AAAAAACAUGAGGAUCACCCAUGUGAGGAUAUGCAUAAAAAAAAAAAAAAAAAAAAAUGCAGAAGGCACAUAAA [jn_bayonne] , give the reported apparent KD of MS2 coat protein.
78.5

Likewise for AACAGGUCAGGAUAUGUGUAAAAAAUAAAAAAAAUAUAAACACAGAAGGGACAUGAGGAUCACCCAUGUUAACA [May 26] ?
35.7

Likewise for AGCUAGUCAGGAUAUACGAACAUGUCGGAAGACGUGAAGGGACAUGAGGAUCACCCAUGUAGAAGGGACUAGCA [Mat - Exclusion 2 - JL mod - D3] ?
136

Likewise for AAUAACAGAGGAUAUACUAAAGAAAUGAAAAGAAAUAAAGAACAUGAGGAUCACCCAUGUAGAAGGCUGAAUAA [Sheneh] ?
21.5

Likewise for AACAGUACAGGAUAUACAUGAGGAUCACCCAUGUGAAAAUUAAGUGGAAAACCACAGUGUAGAAGGGUACUGGA [Mat - Exclusion 3 - Eli mod - D53] ?
191

Likewise for AACAUGUCAGGAUAUGUACGAAAAAAUAAAAAAAUAAAAGUACAGAAGGGACAUGAGGAUCACCCAUGUCAAAA [EX4 394: Minimal 7] ?
47.4

Likewise for AAAGGACAUGAGGAUCACCCAUGUGAGGAUAUGCGAAAAAAAAAAAUAAAAAAAAAAAGUAGAAGGCACACCAA [Mat - Exclusion 1 - Eli mod - D57] ?
128

Likewise for AAGAAGUGAGGAUAUCGAAGACAGACGAAAAGUCUGUCAAACGAGAAGGCACAUGAGGAUCACCCAUGUGAGAA [What have we learned so far? 64% 2] ?
38.1

Likewise for AGCUAGUCAGGAUAUACGAGCAUGUCAAAAGACGUGAAGGGACAUGAGGAUCACCCAUGUAGAAGGGACUAGCA [Diamond 22] ?
122

Likewise for AAAACUGGAGGAUAUACAUGAGGAUCACCCAUGUGUGGAUGAGCUGUGUCGGCGUCAAGUAGAAGGCCACAAAA [Gilly Gone Silly 36 - Jieux - Exclusion 3] ?
43.1

Likewise for AAAAAGCGAGGAUAUACGAGUCAAAGAAAAGACAAAGGGAAACAUGAGGAUCACCCAUGUAGAAGGCGCAAAAA [Fiskers exclusion D2 62% 1] ?
134

Likewise for CUCUAGUAAGGAUAUGGAAGAAAAGAAAAGAAAGAAAAGAACCAGAAGGUACAUGAGGAUCACCCAUGUAAGAA [EteRNA is fun!] ?
23.4

Likewise for AAAAAACAUGAGGAUCACCCAUGUCAGGAUAUCGUGCAGAAAAAAAAAAAAAACUGCACGAGAAGGGACAUGAA [Mod of jnicol] ?
94.9

Likewise for AACAUGUCAGGAUAUGUACGAAAAAAUAAAAAAAUAAAAGUACAGAAGGGACAUGAGGAUCACCCAUGUCAGGG [EX4 393: Minimal 6] ?
20

Likewise for CUCAUGUCAGGAUAUGUAGCAUGAUACGAAAGUAUCAUGCUACAGAAGGGACAUGAGGAUCACCCAUGUCCAAA [Ex4: 944] ?
37.7

Likewise for AAUAAACAUGAGGAUCACCCAUGUCAGGAUAUGCACAAACAAACAAACAAACAAGCUAGCAGAAGGGACACUAC [Amethyst 87] ?
31

Likewise for AGUCAGAGAGGAUAUACAAGGGAAAAAAAAGUUAGAUCCCUACAUGAGGAUCACCCAUGUAGAAGGCUCUGACA [Ex2 Design 152: Sub-opt 16] ?
49.2

Likewise for AACAGGUCAGGAUAUGUGGAAAAAAUAAAAAAAAAUAAAACACAGAAGGGACAUGAGGAUCACCCAUGUAAAUA [Mat - Exclusion 4 - Mayanna - D142] ?
59.2

Likewise for CCUGUGUGAGGAUAUGGUGUAAAAAAAAAAAAAUAGCUCCUCCAGAAGGCACAUGAGGAUCACCCAUGUCGUGG [Jolly's Folly 18 - Jieux - Exclusion 4] ?
65.8

Likewise for AAAAAACAUGAGGAUCACCCAUGUGAGGAUAUGAAAAAACAAAAAAAAAAGUAAUCAAUCAGAAGGCACAACAA [JR_Exc--1_Sub1210] ?
28.9

Likewise for AAUUCACAUGAGGAUCACCCAUGUAAGGAUAUCGAAAUAAAACUAAUCAAAAAACAAACGAGAAGGUACAAAAA [Exclusion 1 design 7] ?
26.3

Likewise for AAGAGUACAGGAUAUAUAUGAAAAGAGUCGAAAGACUCAAAACAUGAGGAUCACCCAUGUAGAAGGGUACUCAA [Hyphema Seclusion Mod 62% 1] ?
22.9

Likewise for CAAAGGUGAGGAUAUACAGGAAUAUGACGAAAGUCAUAAAAACAUGAGGAUCACCCAUGUAGAAGGCACCACAA [E2 64% 3] ?
57.3

Likewise for AAAAAAAGAGGAUAUACGUGAAAAAUAAAAAUGUAAAAACCACAUGAGGAUCACCCAUGUAGAAGGCUUAAAAA [Ecx-I 62% 2] ?
22.8
